Quick note: these are log10 of Ki numbers for system: 5-HT2AR (Homo sapiens)
Sequence (P28223 whole entry): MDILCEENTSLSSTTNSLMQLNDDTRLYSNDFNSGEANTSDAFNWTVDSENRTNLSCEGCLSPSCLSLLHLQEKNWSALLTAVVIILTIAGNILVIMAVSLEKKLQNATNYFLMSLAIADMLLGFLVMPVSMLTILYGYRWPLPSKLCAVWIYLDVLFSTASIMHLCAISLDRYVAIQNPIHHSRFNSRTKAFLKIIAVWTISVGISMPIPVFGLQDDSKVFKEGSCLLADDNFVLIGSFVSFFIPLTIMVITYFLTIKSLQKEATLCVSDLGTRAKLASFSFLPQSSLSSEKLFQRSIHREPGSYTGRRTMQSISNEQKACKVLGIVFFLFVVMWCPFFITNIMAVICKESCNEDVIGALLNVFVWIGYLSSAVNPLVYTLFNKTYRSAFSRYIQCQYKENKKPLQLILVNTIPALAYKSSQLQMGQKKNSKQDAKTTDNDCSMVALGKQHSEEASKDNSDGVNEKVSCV
Answers are given as log10 of Ki in nM.

// solved cases for log10 of Ki follow
1. COc1cc(CCNCc2ccccc2F)c(OC)cc1Br [Compd 12]    0.56
2. CCCc1cc(OC)c(CCN)cc1OC [Compd 1, 2,5-dimethoxy-4-propyl-benzeneethanamine]    0.54
3. COc1cc(CCNCc2ccccc2F)c(OC)cc1Cl [Compd 11]    1.03
4. COc1cc([N+](=O)[O-])c(OC)cc1CCN [Compd 2, 2,5-Dimethoxy-4-nitrophenethylamine]    1.40

Quick check: log10 of Ki on 5-HT2AR (Homo sapiens), item COc1cc(CCNCc2ccccc2OC)c(OC)cc1Cl [Compd 8] ?
-0.09

What do we get for CCN(CC)CCc1c[nH]c2cccc(OC(C)=O)c12 [Compd 18, 4-Acetoxy-N,N-diethyltryptamine] ?
2.77

What do we get for COc1cc(CCNCc2ccccc2OC)c(OC)cc1C [Compd 6] ?
0.46

What do we get for CCCN(CC)CCc1c[nH]c2ccc(OC)cc12 [Compd 20, 5-methoxy -N-ethyl-N-propyl tryptamine] ?
2.09

What do we get for C=CCN(CC=C)CCc1c[nH]c2ccc(OC)cc12 [Compd 25] ?
2.41

What do we get for CCc1cc(OC)c(CCNCc2ccccc2OC)cc1OC [Compd 7] ?
0.18
